src = the supplement of paper PMC11908140

B1: library; numbered along this chain (parent)
chain: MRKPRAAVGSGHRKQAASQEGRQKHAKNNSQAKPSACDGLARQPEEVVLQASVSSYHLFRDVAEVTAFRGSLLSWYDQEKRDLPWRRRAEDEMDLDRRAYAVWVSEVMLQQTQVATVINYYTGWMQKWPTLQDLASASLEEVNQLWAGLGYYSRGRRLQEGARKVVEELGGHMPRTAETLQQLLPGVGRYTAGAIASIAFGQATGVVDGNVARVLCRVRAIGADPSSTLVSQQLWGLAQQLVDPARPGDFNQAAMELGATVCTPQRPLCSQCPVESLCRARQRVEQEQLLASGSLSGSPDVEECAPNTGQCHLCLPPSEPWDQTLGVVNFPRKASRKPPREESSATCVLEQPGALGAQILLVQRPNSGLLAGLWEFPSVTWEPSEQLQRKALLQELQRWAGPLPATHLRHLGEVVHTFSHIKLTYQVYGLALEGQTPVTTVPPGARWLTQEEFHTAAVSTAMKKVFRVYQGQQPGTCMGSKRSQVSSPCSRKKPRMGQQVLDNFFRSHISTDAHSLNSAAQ

Variants of: B1
Assay: 8OG:A repair function score (normalized; synonymous = 0, nonsense = -1) (normalized log-likelihood score); higher = more repair activity (WT-like);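 also: cells sorted at 72 h after reporter transfection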
Settings: with 8OG:A DNA repair reporter (GFP) in HEK-293 MUTYH KO cells
propertyMeasured: 8OG:A repair function score
Give the figure only, with no unit attached.

variantDesignation	valueObserved
A137P	-0.869
T476P	-0.0234
L448V	-0.117
G186Q	-0.401
L139M	-0.053

8OG:A repair function score measured on Q470L = 0.00494

8OG:A repair function score measured on S231L = -0.0707

8OG:A repair function score measured on K80V = -0.423
